Every entry's value here was drawn from ChEMBL document CHEMBL1128860.

# target_entity: 5-hydroxytryptamine receptor 2C (Homo sapiens, UniProt P28335)
# Sequence (P28335 whole entry): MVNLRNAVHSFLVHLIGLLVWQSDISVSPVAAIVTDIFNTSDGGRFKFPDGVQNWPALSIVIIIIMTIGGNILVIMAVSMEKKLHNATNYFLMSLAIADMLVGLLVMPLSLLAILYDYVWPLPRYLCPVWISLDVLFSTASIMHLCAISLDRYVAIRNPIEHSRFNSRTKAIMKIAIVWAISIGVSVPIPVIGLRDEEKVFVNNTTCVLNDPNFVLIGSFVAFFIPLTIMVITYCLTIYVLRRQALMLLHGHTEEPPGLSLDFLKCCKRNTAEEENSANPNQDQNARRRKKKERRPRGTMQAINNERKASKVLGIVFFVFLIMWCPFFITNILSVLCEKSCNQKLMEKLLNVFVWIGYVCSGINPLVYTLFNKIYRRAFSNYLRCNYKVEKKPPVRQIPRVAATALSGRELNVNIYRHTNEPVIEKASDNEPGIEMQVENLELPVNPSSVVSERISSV
measured_attribute: IC50

# get_value(readout= IC50, system= 5-hydroxytryptamine receptor 2C (Homo sapiens, UniProt P28335)) for Cc1ccccc1N1CCN(C(=O)COc2ccc3[nH]cc(CCN)c3c2)CC1
> 10 µM

* * *

# target_entity: 5-hydroxytryptamine receptor 1A (Homo sapiens, UniProt P08908)
# Sequence (P08908 whole entry): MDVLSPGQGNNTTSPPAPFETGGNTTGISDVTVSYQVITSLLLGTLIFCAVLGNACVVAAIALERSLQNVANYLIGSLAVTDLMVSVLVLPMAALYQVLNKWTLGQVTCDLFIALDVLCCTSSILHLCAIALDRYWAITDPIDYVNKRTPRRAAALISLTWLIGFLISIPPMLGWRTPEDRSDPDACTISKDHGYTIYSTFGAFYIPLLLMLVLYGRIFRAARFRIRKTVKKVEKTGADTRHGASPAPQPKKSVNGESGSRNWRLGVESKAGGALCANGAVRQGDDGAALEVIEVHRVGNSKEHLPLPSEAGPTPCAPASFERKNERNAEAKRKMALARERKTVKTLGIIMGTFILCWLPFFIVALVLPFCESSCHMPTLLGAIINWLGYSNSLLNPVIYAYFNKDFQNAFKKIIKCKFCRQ
# assay_comment: Compound was tested for its ability to inhibit forskolin-stimulated activity of adenylate cyclase coupled to human 5-HT 1A receptor in HeLa cells; value ranges from 85-370
# Assay type: functional, cell-based
measured_attribute: EC50 (µM)
The answer is to be given in µM; state only the numeric part.

I'd like to know its EC50. The compound in question is COc1cccc(N2CCN(C(=O)COc3ccc4[nH]cc(CCN)c4c3)CC2)c1
0.085
